Biological target: murine IDO (Mus musculus, UniProt P28776)
Construct: expressed in transfected cells; host or cells: 293-T-REx cells (Invitrogen), doxycycline-inducible CMV-tet promoter
Sequence (P28776 whole entry): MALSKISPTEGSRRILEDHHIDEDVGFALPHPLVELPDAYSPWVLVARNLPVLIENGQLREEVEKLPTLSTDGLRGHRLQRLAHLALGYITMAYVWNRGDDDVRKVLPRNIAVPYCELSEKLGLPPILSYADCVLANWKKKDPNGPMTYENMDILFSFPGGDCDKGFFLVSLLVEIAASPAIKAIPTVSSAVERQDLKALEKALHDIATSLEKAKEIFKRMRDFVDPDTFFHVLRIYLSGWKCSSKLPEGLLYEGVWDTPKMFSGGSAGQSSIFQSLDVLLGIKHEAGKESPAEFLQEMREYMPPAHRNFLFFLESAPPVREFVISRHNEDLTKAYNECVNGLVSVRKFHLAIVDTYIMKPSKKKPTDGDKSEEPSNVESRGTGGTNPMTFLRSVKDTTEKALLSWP
Test: Cell based IDO/kynurenine assay in 293-T-Rex cells expressing murine IDO
Conditions: Table 15; cells expressing murine IDO; read-out: mIDO EC50
observed-property: EC50

Task item: Value lookup for EC50; key = NOCc1cc(Cl)ccc1-c1ccc(Cl)cc1
Reply: < 10 µM

Task item: Value lookup for EC50; key = NOCc1cc(Cl)ccc1-c1cccc(Cl)c1
Reply: 10 to 100 µM

Task item: Value lookup for EC50; key = NOCc1ccccc1-c1ccccc1 [compound 1827, O-(biphenyl-2-ylmethyl)hydroxylamine]
Reply: 10 to 100 µM

Task item: Value lookup for EC50; key = NOC(Cc1ccccc1)c1ccccc1 (centres unmarked) [compound 1921, O-(1,2-diphenylethyl)hydroxylamine]
Reply: 10 to 100 µM

Task item: Value lookup for EC50; key = NOCc1nc2ccccc2s1
Reply: < 10 µM

---

Biological target: purified human IDO protein (Homo sapiens, UniProt P14902)
Sequence (P14902 whole entry P110S/E119G): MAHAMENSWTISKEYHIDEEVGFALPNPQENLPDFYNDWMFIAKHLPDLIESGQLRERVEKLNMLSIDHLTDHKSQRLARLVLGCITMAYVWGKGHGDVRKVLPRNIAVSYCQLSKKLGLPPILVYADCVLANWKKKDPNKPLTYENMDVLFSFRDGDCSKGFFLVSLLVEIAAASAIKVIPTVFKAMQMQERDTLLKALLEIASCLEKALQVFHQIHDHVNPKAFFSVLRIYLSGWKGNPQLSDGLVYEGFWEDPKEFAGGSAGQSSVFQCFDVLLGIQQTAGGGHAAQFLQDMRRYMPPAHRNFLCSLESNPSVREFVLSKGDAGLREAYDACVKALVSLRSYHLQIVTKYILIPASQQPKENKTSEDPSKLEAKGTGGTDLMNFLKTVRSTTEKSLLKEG
Assay: Enzymatic IDO assay (kynurenine production, absorbance 480 nm)
Conditions: hIDO IC50, Table 15; recombinant human IDO, enzymatic activity
pIC50: −log10 of the molar value.
Exercise: for every item that follows, state its recorded pIC50.

Task item: Value lookup for pIC50; key = NOCc1cc2ccccc2o1 [compound 1774, O-(benzofuran-2-ylmethyl)hydroxylamine]
Reply: > 5.00

Task item: Value lookup for pIC50; key = NOCc1cc(Cl)ccc1-c1ccsc1
Reply: > 5.00

Task item: Value lookup for pIC50; key = NOCc1ccccc1-c1ccccc1 [compound 1827, O-(biphenyl-2-ylmethyl)hydroxylamine]
Reply: > 5.00

Task item: Value lookup for pIC50; key = NOCc1ccccn1 [compound 1739, O-(pyridin-2-ylmethyl)hydroxylamine]
Reply: 4.00 to 5.00

Task item: Value lookup for pIC50; key = NOCc1cccc(-c2ccccc2)c1 [compound 1825, O-(biphenyl-3-ylmethyl)hydroxylamine]
Reply: > 5.00

Task item: Value lookup for pIC50; key = COc1ccc(-c2cccc(CON)c2)cc1
Reply: > 5.00

Task item: Value lookup for pIC50; key = CNC(=O)CCC(ON)c1ccccc1 (centres unmarked) [compound 1898, 4-(aminooxy)-N-methyl-4-phenylbutanamide]
Reply: 4.00 to 5.00

Task item: Value lookup for pIC50; key = NOC(COc1ccccc1)c1ccccc1 (centres unmarked) [compound 1937, O-(2-phenoxy-1-phenylethyl)hydroxylamine]
Reply: > 5.00

---

Target: UniProtKB P14902
Assay: Cell based IDO/kynurenine assay in IDO-293-T-Rex cells
Conditions: kynurenine production, 293T cell line stably expressing human IDO; values reported in ranges; read-out: hIDO EC50
pEC50: −log10 of the molar value.
observed-property: pEC50

Task item: Value lookup for pEC50; key = S=C(NCCc1c[nH]c2ccccc12)SCCc1ccccc1Cl [compound 21]
Reply: 3.00 to 4.00

Task item: Value lookup for pEC50; key = CSC(=S)NC(C)(C)Cc1c[nH]c2ccccc12 [compound 28]
Reply: 4.00 to 4.70

Task item: Value lookup for pEC50; key = S=C(NCCc1csc2ccccc12)SCc1ccc2ccccc2c1 [compound 60]
Reply: 4.00 to 4.70

Task item: Value lookup for pEC50; key = CN(C)c1ccc(/C=C2\CSC(=S)NC2=O)cc1 [compound 150]
Reply: 3.00 to 4.00

Task item: Value lookup for pEC50; key = CC(=O)N1C(=O)/C(=C2/SC(=S)NC2=O)c2ccccc21 [compound 149]
Reply: 4.00 to 4.70

Task item: Value lookup for pEC50; key = CC1=C(CN2C(=O)c3ccccc3C2=O)C(=O)c2ccccc2C1=O [compound 464]
Reply: 2.00 to 3.00

Task item: Value lookup for pEC50; key = CSC(=S)NCCc1c[nH]c2ccc([N+](=O)[O-])cc12 [compound 40]
Reply: 3.00 to 4.00

Task item: Value lookup for pEC50; key = Oc1ccccc1C(=S)NCc1ccc2ccccc2c1 [compound 607]
Reply: 4.00 to 4.70

Task item: Value lookup for pEC50; key = Nc1ccc2[nH]cc(C(=O)O)c2c1 [compound 352, 5-amino-1H-indole-3-carboxylic acid]
Reply: 2.00 to 3.00

---

Target: purified human IDO protein (Homo sapiens)
Experiment: Enzymatic IDO assay (kynurenine production, absorbance 480 nm)
Conditions: hIDO IC50, Table 15; recombinant human IDO, enzymatic activity
pIC50: −log10 of the molar value.
Exercise: for every item that follows, state its recorded pIC50.

Task item: API: value(readout=pIC50, system=purified human IDO protein (Homo sapiens)) for record NOCc1cc(Cl)ccc1-c1ccccc1Cl [compound 1915]
Reply: > 5.00

Task item: API: value(readout=pIC50, system=purified human IDO protein (Homo sapiens)) for record NOCc1cc(Cl)cc(Cl)c1 [compound 1769, O-(3,5-dichlorobenzyl)hydroxylamine]
Reply: > 5.00

Task item: API: value(readout=pIC50, system=purified human IDO protein (Homo sapiens)) for record NOCc1ccc2ccccc2c1 [compound 1736, O-(naphthalen-2-ylmethyl)hydroxylamine]
Reply: > 5.00

Task item: API: value(readout=pIC50, system=purified human IDO protein (Homo sapiens)) for record NOCc1cccc(-c2ccncc2)c1 [compound 1888, O-(3-(pyridin-4-yl)benzyl)hydroxylamine]
Reply: 4.00 to 5.00

Task item: API: value(readout=pIC50, system=purified human IDO protein (Homo sapiens)) for record CNC(=O)C(ON)c1ccccc1 (centres unmarked) [compound 1897, 2-(aminooxy)-N-methyl-2-phenylacetamide]
Reply: > 5.00

Task item: API: value(readout=pIC50, system=purified human IDO protein (Homo sapiens)) for record CNCC(ON)c1ccccc1 (centres unmarked) [compound 1902, 2-(aminooxy)-N-methyl-2-phenylethanamine]
Reply: 3.00 to 4.00

Task item: API: value(readout=pIC50, system=purified human IDO protein (Homo sapiens)) for record COc1ccc(-c2ccc(Cl)cc2CON)cc1 [compound 1914]
Reply: > 5.00

Task item: API: value(readout=pIC50, system=purified human IDO protein (Homo sapiens)) for record Cc1ccc(-c2cccc(CON)c2)cc1 [compound 1881]
Reply: 4.00 to 5.00

Task item: API: value(readout=pIC50, system=purified human IDO protein (Homo sapiens)) for record NOCc1cccnc1 [compound 1738, O-(pyridin-3-ylmethyl)hydroxylamine]
Reply: 4.00 to 5.00

Task item: API: value(readout=pIC50, system=purified human IDO protein (Homo sapiens)) for record NOCc1cccc(Nc2ccccc2)c1 [compound 1829, 3-(aminooxymethyl)-N-phenylaniline]
Reply: > 5.00

Task item: API: value(readout=pIC50, system=purified human IDO protein (Homo sapiens)) for record NOC(CCc1ccccc1)c1ccccc1 (centres unmarked) [compound 1924, O-(1,3-diphenylpropyl)hydroxylamine]
Reply: > 5.00

Task item: API: value(readout=pIC50, system=purified human IDO protein (Homo sapiens)) for record NOCc1ccncc1 [compound 1737, O-(pyridin-4-ylmethyl)hydroxylamine]
Reply: 4.00 to 5.00

Task item: API: value(readout=pIC50, system=purified human IDO protein (Homo sapiens)) for record NCCC(ON)c1ccccc1 (centres unmarked) [compound 1877, 3-(aminooxy)-3-phenylpropan-1-amine]
Reply: 4.00 to 5.00

Task item: API: value(readout=pIC50, system=purified human IDO protein (Homo sapiens)) for record CC(=O)NCC(ON)c1ccccc1 (centres unmarked) [compound 1899, N-(2-(aminooxy)-2-phenylethyl)acetamide]
Reply: 3.00 to 4.00

Task item: API: value(readout=pIC50, system=purified human IDO protein (Homo sapiens)) for record NOCc1cc(F)cc(Cl)c1 [compound 1660, O-(3-chloro-5-fluorobenzyl)hydroxylamine]
Reply: > 5.00

Task item: API: value(readout=pIC50, system=purified human IDO protein (Homo sapiens)) for record CNC(=O)[C@H](ON)c1ccccc1 [compound 2034]
Reply: 3.00 to 4.00

Task item: API: value(readout=pIC50, system=purified human IDO protein (Homo sapiens)) for record NOCc1cccc(NCc2ccccc2)c1 [compound 1828, 3-(aminooxymethyl)-N-benzylaniline]
Reply: 3.00 to 4.00

---

Biological target: purified human IDO protein (Homo sapiens, UniProt P14902)
Assay: Enzymatic IDO assay (kynurenine production, absorbance 480 nm)
Conditions: hIDO IC50, Table 16; recombinant human IDO, enzymatic activity
pIC50: −log10 of the molar value.
Exercise: for every item that follows, state its recorded pIC50.

Task item: Value lookup for pIC50; key = NOC1CCCCO1 (stereo not drawn) [compound 1669]
Reply: 4.00 to 5.00

Task item: Value lookup for pIC50; key = COc1ccccc1CON [compound 1678, O-(2-methoxybenzyl)hydroxylamine]
Reply: 4.00 to 5.00

Task item: Value lookup for pIC50; key = NOCc1cccc(CON)c1 [compound 1823]
Reply: 4.00 to 5.00

Task item: Value lookup for pIC50; key = NOCc1ccccc1 [compound 1666, O-benzylhydroxylamine]
Reply: > 5.00

Task item: Value lookup for pIC50; key = NOCCOc1ccccc1 [compound 1679, O-(2-phenoxyethyl)hydroxylamine]
Reply: > 5.00

Task item: Value lookup for pIC50; key = NOCc1ccc(CON)cc1 [compound 1492]
Reply: 4.00 to 5.00

Task item: Value lookup for pIC50; key = NOCc1ccc([N+](=O)[O-])cc1 [compound 1014, O-(4-nitrobenzyl)hydroxylamine]
Reply: 4.00 to 5.00

Task item: Value lookup for pIC50; key = NOCc1cccc2ccccc12 [compound 1767, O-(naphthalen-1-ylmethyl)hydroxylamine]
Reply: > 5.00

Task item: Value lookup for pIC50; key = NOCc1ccccc1[N+](=O)[O-] [compound 811, O-(2-nitrobenzyl)hydroxylamine]
Reply: > 5.00
